experiment: Metabolic stability in Sprague-Dawley rat liver microsomes assessed as compound remaining at 0.05 mg/mL after 15 mins; format: ADME; settings: read-out: Stability
Quick reference: remaining at 0.25 h, 0.05 mg/mL of the listed items.
Lab book: enter the figure in %, no units written.

1) C#CC1=CCC(N(CCC)CCCCNC(=O)c2ccc(-c3ccccc3)cc2)CC1 (racemic) : 91.4

# context switch: different compound, same remaining at 0.25 h, 0.05 mg/mL
What remaining at 0.25 h, 0.05 mg/mL value was documented for this compound, CCCN(CCc1cccs1)[C@H]1CCc2c(O)cccc2C1 ?
41.8

* * *

# remaining at 1 h, 0.05 mg/mL annotations
assay: Metabolic stability in Sprague-Dawley rat liver microsomes assessed as compound remaining at 0.05 mg/mL after 60 mins; type: ADME; details: read-out: Stability
API: value field is a number in %; no unit string.

1. C#CC1=CCC(N(CCC)CCCCNC(=O)c2ccc(-c3ccccc3)cc2)CC1 (racemic) : 73.3

Quick check: remaining at 1 h, 0.05 mg/mL of CCCN(CCc1cccs1)[C@H]1CCc2c(O)cccc2C1 ?
5.5

* * *

test: Displacement of [3H]prazosin from alpha-1 adrenergic receptor in porcine cerebral cortex; assay type: tissue-based, Sus scrofa
experimental-readout: log10 Ki (log10 of the value in nM)
Response schema: value (number) is log10 of Ki in units of nM.

1. C#CC1=CC[C@H](N(CCC)CCCCNC(=O)c2cnn3ccccc23)CC1 : 2.86
2. C#CC1=CC[C@@H](N(CCC)CCCCNC(=O)c2ccc(-c3ccccc3)cc2)CC1 : 2.11
3. C#CC1=CC[C@@H](N(CCC)CCCCNC(=O)c2cc3ccccc3s2)CC1 : 2.30
4. C#CC1=CC[C@@H](N(CCC)CCCCNC(=O)c2cnn3ccccc23)CC1 : 3.18

Entry C#CC1=CC[C@H](N(CCC)CCCCNC(=O)c2cc3ccccn3n2)CC1 has what log10 Ki?
3.04

* * *

This section presents compounds with their documented pKi values.
target: D(2) dopamine receptor (Homo sapiens, UniProt P14416); assay: Displacement of [3H]spiperone from human dopamine D2L receptor expressed in CHO cells; type: cell-based
Sequence (P14416 whole entry): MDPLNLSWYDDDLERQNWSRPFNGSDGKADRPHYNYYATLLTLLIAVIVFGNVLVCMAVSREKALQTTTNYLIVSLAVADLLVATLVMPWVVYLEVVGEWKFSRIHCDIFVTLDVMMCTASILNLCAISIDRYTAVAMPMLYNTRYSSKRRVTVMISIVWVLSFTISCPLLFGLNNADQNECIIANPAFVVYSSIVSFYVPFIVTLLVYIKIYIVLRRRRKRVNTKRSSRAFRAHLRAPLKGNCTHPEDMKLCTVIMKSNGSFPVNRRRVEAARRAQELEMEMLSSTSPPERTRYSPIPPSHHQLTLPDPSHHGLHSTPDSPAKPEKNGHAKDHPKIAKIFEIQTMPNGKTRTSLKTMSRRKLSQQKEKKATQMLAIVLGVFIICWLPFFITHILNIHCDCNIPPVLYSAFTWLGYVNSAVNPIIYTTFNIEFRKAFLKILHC
Schema: pKi number; meaning minus log10 of the concentration expressed in molar units.

Check out these entries, answers already filled in.
1) C#CC1=CC[C@H](N(CCC)CCCCNC(=O)c2cc3ccccc3s2)CC1 : 7.49
2) C#CC1=CC[C@@H](N(CCC)CCCCNC(=O)c2cc3ccccn3n2)CC1 : 7.18
3) C#CC1=CC[C@H](N(CCC)CCCCNC(=O)c2cnn3ccccc23)CC1 : 8.15
4) C#CC1=CC[C@@H](N(CCC)CCCCNC(=O)c2cc3ccccc3s2)CC1 : 7.66
5) C#CC1=CC[C@@H](N(CCC)CCCCNC(=O)c2cnn3ccccc23)CC1 : 8.11

The record that follows has no pKi shown yet.
Name the reported pKi value associated with the compound C#CC1=CC[C@H](N(CCC)CCCCNC(=O)c2cc3ccccn3n2)CC1
7.20

* * *

target: D(4) dopamine receptor (Homo sapiens, UniProt P21917); experiment: Displacement of [3H]spiperone from human dopamine D4.4 receptor expressed in CHO cells; type: cell-based
Sequence (P21917 whole entry): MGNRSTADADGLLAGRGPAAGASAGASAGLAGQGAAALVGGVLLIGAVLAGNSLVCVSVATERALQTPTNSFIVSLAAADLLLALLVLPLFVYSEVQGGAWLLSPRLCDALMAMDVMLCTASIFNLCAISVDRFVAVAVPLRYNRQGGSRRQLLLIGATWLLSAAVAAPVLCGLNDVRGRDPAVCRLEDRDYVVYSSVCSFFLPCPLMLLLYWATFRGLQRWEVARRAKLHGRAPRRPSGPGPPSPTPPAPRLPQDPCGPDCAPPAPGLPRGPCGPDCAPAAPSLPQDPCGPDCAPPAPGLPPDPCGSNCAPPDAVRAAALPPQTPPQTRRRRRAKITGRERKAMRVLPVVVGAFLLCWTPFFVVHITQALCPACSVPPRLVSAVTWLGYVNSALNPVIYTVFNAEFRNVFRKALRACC
experimental-readout: pKi
pKi here: minus log base 10 of the concentration, concentration in moles per litre.

1. C#CC1=CC[C@@H](N(CCC)CCCCNC(=O)c2cc3ccccc3s2)CC1 : 8.32
2. C#CC1=CC[C@@H](N(CCC)CCCCNC(=O)c2cnn3ccccc23)CC1 : 7.66

For the next question, use this compound.
Missing value: pKi, D(4) dopamine receptor (Homo sapiens, UniProt P21917), entry C#CC1=CC[C@H](N(CCC)CCCCNC(=O)c2cnn3ccccc23)CC1 . Fill in?
7.85

The reported numbers originate from ChEMBL document CHEMBL2396548.
